Data origin: the RNAGym collection of RNA variant scans (doi:10.1038/s41586-018-0170-7)

B1: tRNA (parent)
chain: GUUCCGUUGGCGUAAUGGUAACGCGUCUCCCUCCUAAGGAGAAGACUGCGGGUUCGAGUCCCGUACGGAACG

- Variants of: B1
- protocol: yeast fitness, log relative to wild type (ln ratio); higher = fitter; tRNA-Arg(CCU), competitive growth, 37 C, 1 M NaCl
Entries annotated with measured yeast fitness (ln)
Form field (numeric): enter value without unit.

Some solved entries appear below for comparison.
[[record]]
polymersequence = "GGUCCGUUGGCGUAAUGGUAACGCGUCUCCCUCCUAAGGAGACGACUGCGGGUUCGAGUCCCGUAUGGGAUG"
observedvalue = -0.455

[[record]]
polymersequence = "GUUCCAUUGGCGUAAUGGUAACGCGUUUCCCUCCUAAGGAGAAGACUGCGGGUUCGAGUCCCGUAAGGAAUG"
observedvalue = -0.168

[[record]]
polymersequence = "GUUCCUUUGGCGUAAUGGUAACGCGUCUCCCUCCUAAGGAGAAGAUUGCGGGUUCGAGUCCCGUACGGAUCG"
observedvalue = -0.161

[[record]]
polymersequence = "GGUCCAUUGGCGUAAUGGUAACGCGUUUCCCUCCUAAGGAGAAGACUGCGGGUUCGAGUCCCGUAAGGGUUG"
observedvalue = -0.499


Moving on to the next variant.
Form field yeast fitness (ln), entry `AUUCCUUUGGCGUAAUGGUAACGCGUUUCCCUCCUAAGGAGACGAUUGCGGGUUCGAGUCCCGUAAGGGGUG` : -0.359
